Reference source for all entries: patent US7638535B2

Target: h5-HT4b (Homo sapiens, UniProt Q13639)
Construct: expressed in transfected cells; host or cells: HEK 293 (clone 9), membrane preparation
Sequence (Q13639 whole entry): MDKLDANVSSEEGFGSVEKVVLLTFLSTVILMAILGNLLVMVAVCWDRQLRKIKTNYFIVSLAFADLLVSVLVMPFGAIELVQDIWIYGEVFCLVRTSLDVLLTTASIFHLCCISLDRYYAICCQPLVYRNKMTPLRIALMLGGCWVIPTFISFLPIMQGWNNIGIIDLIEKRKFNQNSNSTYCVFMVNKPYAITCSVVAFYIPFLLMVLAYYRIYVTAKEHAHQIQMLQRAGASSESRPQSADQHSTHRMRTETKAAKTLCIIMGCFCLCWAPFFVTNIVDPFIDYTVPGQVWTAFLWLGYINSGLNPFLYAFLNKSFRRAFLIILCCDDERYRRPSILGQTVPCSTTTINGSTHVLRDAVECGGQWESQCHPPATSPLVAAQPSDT
Test: 5HT4 antagonism: [3H]GR113808 binding to membranes of h5-HT4b-HEK 293 clone 9 cells
Details: displacement of [3H]GR113808 0.1 nM, h5-HT4b-HEK 293 membranes, 30 min at 25° C.; read-out: pIC50 (5HT4 antagonistic data) (converted)
REPORTED_METRIC: IC50
Answer as a quantity: numeral, then unit.

Problem: Give recorded IC50. N#CCCCN1CC[C@@H](CNC(=O)c2cc(C#N)cc3c2OCCCO3)[C@H](O)C1 [compound 160]
Result: 20 nM

Problem: Input CNc1cc2c(c(C(=O)NC[C@@H]3CCN(CCCOC)C[C@H]3O)c1)OCCO2 [compound 115] , output reported IC50.
Result: 16.2 nM

Problem: # return recorded IC50 for entry CNc1cc(C(=O)NC[C@@H]2CCN(CCC3OCCO3)C[C@H]2O)c2c(c1Cl)OCCO2 [compound 30]
Result: 31.6 nM

Problem: Identify the reported IC50 for the following entry. COCCN1CC[C@@H](CNC(=O)c2cc(N)c(Cl)c3c2OCCO3)[C@H](O)C1 [compound 42]
Result: 18.6 nM

* * *

Target: h5-HT4b (Homo sapiens, UniProt Q13639)
Construct: expressed in transfected cells; host or cells: HEK 293 (clone 9), membrane preparation
Assay: 5HT4 antagonism: [3H]GR113808 binding to membranes of h5-HT4b-HEK 293 clone 9 cells
Conditions: displacement of [3H]GR113808 0.1 nM, h5-HT4b-HEK 293 membranes, 30 min at 25° C.; read-out: pIC50 (5HT4 antagonistic data) (converted)
Procedure: h5-HT4b-HEK 293 clone 9 cells were cultured in 150 mm Petri dishes and washed twice with cold PBS. The cells were then scraped from the plates and suspended in 50 mM Tris-HCl buffer, pH 7.4 and harvested by centrifugation at 23,500 rpm for 10 minutes. The pellet was resuspended in 5 mM Tris-HCl, pH 7.4 and homogenized with an Ultra Turrax homogenizer. The membranes were collected by centrifugation at 30,000 rpm for 20 min, resuspended in 50 mM Tris-HCl pH 7.4 and stored at −80° C. […]
REPORTED_METRIC: IC50 (nM)
Field format: number, assumed nM, no unit text.

Problem: Output IC50 of "CNc1cc2c(c(C(=O)NC[C@@H]3CCN(CCOCCO)C[C@H]3O)c1)OCCO2"
Result: 93.3

Problem: Answer with reported IC50 of "COCCCN1CC[C@H](CNC(=O)c2cc(C)cc3c2OCCCO3)[C@@H](O)C1"
Result: 30.9

Problem: Determine from records and report IC50 for "Nc1cc(C(=O)NC[C@@H]2CCN(CCCC(=O)O)C[C@H]2O)c2c(c1Cl)OCCCO2"
Result: 282

Problem: Using known records, supply IC50 for "Cc1cc2c(c(C(=O)NC[C@@H]3CCN(CCCOc4ccc(S(N)(=O)=O)cc4)C[C@H]3O)c1)OCCCO2"
Result: 0.427

Problem: Please indicate IC50 recorded for "CNc1cc2c(c(C(=O)NC[C@@H]3CCN(CCCOC(C)C)C[C@H]3O)c1)OCCO2"
Result: 21.4

Problem: Entry "COCc1cc2c(c(C(=O)NC[C@@H]3CCNC[C@H]3O)c1)OCCCO2" needs its IC50 filled in; supply it.
Result: 269

Problem: Provide one value: measured IC50 of "COCCCCN1CC[C@@H](CNC(=O)c2cc(C)cc3c2OCCCO3)[C@H](O)C1"
Result: 0.49

Problem: Give the reported value of IC50 for this record: "Nc1cc(C(=O)NC[C@@H]2CCN(Cc3ccc(F)cc3)C[C@H]2O)c2c(c1Cl)OCCCO2"
Result: 9.33

Problem: Give the reported value of IC50 for this record: "Nc1cc2c(c(C(=O)NC[C@@H]3CCN(CCCC(=O)O)C[C@H]3O)c1)OCCO2"
Result: 195

Problem: Quickly give me recorded IC50 for "CNCCCCN1CC[C@@H](CNC(=O)c2cc(N)cc3c2OCCO3)[C@H](O)C1"
Result: 33.9
